- System: SUM149PT spheroids with HUVEC/MSC, viability
- Protocol details: Anticancer human tumor SUM149PT cell line growth inhibition [GQUAD]
- Setup conditions: second compound 0.1 µM; first compound 1 µM; stronger effect = lower value
Please respond with reported viability, T/C for every item in the list.

Reference set (3 entries):
Compound	viability, T/C
CCCS(=O)(=O)Nc1ccc(F)c(C(=O)c2c[nH]c3ncc(-c4ccc(Cl)cc4)cc23)c1F + Cc1cnc(CNC(=O)c2c(=O)c3ccc(N4CCCN(C)CC4)nc3n3c2sc2ccccc23)cn1	66.5%
CC1COCCN1c1cc(C2(S(C)(=N)=O)CC2)nc(-c2ccnc3[nH]ccc23)n1 (stereo unspecified) + Cc1cnc(CNC(=O)c2c(=O)c3ccc(N4CCCN(C)CC4)nc3n3c2sc2ccccc23)cn1	23.7%
Nc1ccn(C2OC(CO)C(O)C2(F)F)c(=O)n1 (stereo unspecified) + CN(C)c1ccc(Nc2c3ccc(NC(=O)CCN4CCCC4)cc3nc3cc(NC(=O)CCN4CCCC4)ccc23)cc1	26.7%

Each of the following entries comes with a recorded value; kindly state viability, T/C for each.
1. CC1COCCN1c1cc(C2(O)CC3CCC(C2)O3)c2cnn(-c3ccn[nH]3)c2n1 (stereo unspecified) + Cc1cnc(CNC(=O)c2c(=O)c3ccc(N4CCCN(C)CC4)nc3n3c2sc2ccccc23)cn1
2. Cc1cccc(N(C)C(=O)C2C(O)CCN2c2nc(C)cc(C(F)(F)F)c2C#N)c1 (stereo unspecified) + Cc1[nH]c2ccc(F)cc2c1-c1nc2c3cccnc3c3ncccc3c2[nH]1
3. C=CCn1c(=O)c2cnc(Nc3ccc(N4CCN(C)CC4)cc3)nc2n1-c1cccc(C(C)(C)O)n1 + Cc1cnc(CNC(=O)c2c(=O)c3ccc(N4CCCN(C)CC4)nc3n3c2sc2ccccc23)cn1

1. 18.3%
2. 96.7%
3. 16.3%

====

- System: SUM149PT spheroids with HUVEC/MSC, viability
- Protocol details: Anticancer human tumor SUM149PT cell line growth inhibition [GQUAD];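 note: spheroids exposed to drugs for seven days before readout; percent viability relative to DMSO vehicle control taken as 100%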
- Setup conditions: second compound 0.316 µM; first compound 0.1 µM; stronger effect = lower value
Metric: viability, T/C (%)
Answers are plain numbers, in %.

Compound	Test target	Metric	Numeric result
CC(C)(O)C1CCC(Nc2ccc3ncc(-c4cccc(C(F)(F)F)c4)n3n2)CC1 (centres undefined) + CN(C)c1ccc(Nc2c3ccc(NC(=O)CCN4CCCC4)cc3nc3cc(NC(=O)CCN4CCCC4)ccc23)cc1	SUM149PT spheroids with HUVEC/MSC, viability	viability, T/C	89.2
CC(=O)O[C@H]1C(=O)[C@@]2(C)[C@H]([C@H](OC(=O)c3ccccc3)[C@]3(O)C[C@H](OC(=O)[C@H](O)[C@@H](NC(=O)c4ccccc4)c4ccccc4)C(C)=C1C3(C)C)[C@]1(OC(C)=O)CO[C@@H]1C[C@@H]2O + Cc1[nH]c2ccc(F)cc2c1-c1nc2c3cccnc3c3ncccc3c2[nH]1	SUM149PT spheroids with HUVEC/MSC, viability	viability, T/C	25.7
COc1ccc([C@@H](O)c2cc(-c3ncnc4cc(N5CCOCC5)ccc34)c(F)cc2Cl)nn1 + Cc1cnc(CNC(=O)c2c(=O)c3ccc(N4CCCN(C)CC4)nc3n3c2sc2ccccc23)cn1	SUM149PT spheroids with HUVEC/MSC, viability	viability, T/C	48.2
CC1COCCN1c1cc(C2(O)CC3CCC(C2)O3)c2cnn(-c3ccn[nH]3)c2n1 (centres undefined) + Cc1[nH]c2ccc(F)cc2c1-c1nc2c3cccnc3c3ncccc3c2[nH]1	SUM149PT spheroids with HUVEC/MSC, viability	viability, T/C	45.6
COc1cc(C2c3cc4c(cc3C(OC3OC5COC(C)OC5C(O)C3O)C3COC(=O)C23)OCO4)cc(OC)c1O (centres undefined) + CN(C)c1ccc(Nc2c3ccc(NC(=O)CCN4CCCC4)cc3nc3cc(NC(=O)CCN4CCCC4)ccc23)cc1	SUM149PT spheroids with HUVEC/MSC, viability	viability, T/C	78.1

Each of the following entries comes with a recorded value; kindly state viability, T/C for each.
1. COc1cccc2c1C(=O)c1c(O)c3c(c(O)c1C2=O)CC(O)(C(=O)CO)CC3OC1CC(N)C(O)C(C)O1 (centres undefined) + Cc1cnc(CNC(=O)c2c(=O)c3ccc(N4CCCN(C)CC4)nc3n3c2sc2ccccc23)cn1
2. Nc1ccn(C2OC(CO)C(O)C2(F)F)c(=O)n1 (centres undefined) + CN(C)c1ccc(Nc2c3ccc(NC(=O)CCN4CCCC4)cc3nc3cc(NC(=O)CCN4CCCC4)ccc23)cc1
3. CC(=O)O[C@H]1C(=O)[C@@]2(C)[C@H]([C@H](OC(=O)c3ccccc3)[C@]3(O)C[C@H](OC(=O)[C@H](O)[C@@H](NC(=O)c4ccccc4)c4ccccc4)C(C)=C1C3(C)C)[C@]1(OC(C)=O)CO[C@@H]1C[C@@H]2O + Cc1cnc(CNC(=O)c2c(=O)c3ccc(N4CCCN(C)CC4)nc3n3c2sc2ccccc23)cn1
4. C#Cc1c(F)ccc2cc(O)cc(-c3ncc4c(N5CC6CCC(C5)N6)nc(OCC56CCCN5CC(F)C6)nc4c3F)c12 (centres undefined) + Cc1cnc(CNC(=O)c2c(=O)c3ccc(N4CCCN(C)CC4)nc3n3c2sc2ccccc23)cn1

45.9
55.3
30.4
52.2

====

- Test system: SUM149PT spheroids with HUVEC/MSC, viability
- Protocol details: Anticancer human tumor SUM149PT cell line growth inhibition [GQUAD]; active = viability on the fitted dose curve at most 10% of control; inactive = the rest;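 note: spheroids exposed to drugs for seven days before readout; percent viability relative to DMSO vehicle control taken as 100%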
- Setup conditions: second compound 1 µM; first compound 3.16 µM
Pick one and only one: active, inactive

Compound	Group label
CC1COCCN1c1cc(C2(O)CC3CCC(C2)O3)c2cnn(-c3ccn[nH]3)c2n1 (configuration not stated) + Cc1cnc(CNC(=O)c2c(=O)c3ccc(N4CCCN(C)CC4)nc3n3c2sc2ccccc23)cn1	inactive

Recorded call for CC(C)(O)C1CCC(Nc2ccc3ncc(-c4cccc(C(F)(F)F)c4)n3n2)CC1 (configuration not stated) + Cc1cnc(CNC(=O)c2c(=O)c3ccc(N4CCCN(C)CC4)nc3n3c2sc2ccccc23)cn1 ? inactive

====

- Test system: SUM149PT spheroids with HUVEC/MSC, viability
- Protocol details: Anticancer human tumor SUM149PT cell line growth inhibition [GQUAD];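 note: spheroids exposed to drugs for seven days before readout; percent viability relative to DMSO vehicle control taken as 100%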
- Setup conditions: second compound 1 µM; first compound 1 µM; stronger effect = lower value
Please respond with reported viability, T/C for every item in the list.
Give bare numbers, in %.

Reference set (2 entries):
Compound	Uom	viability, T/C
CC(C)(O)C1CCC(Nc2ccc3ncc(-c4cccc(C(F)(F)F)c4)n3n2)CC1 (stereo not drawn) + Cc1cnc(CNC(=O)c2c(=O)c3ccc(N4CCCN(C)CC4)nc3n3c2sc2ccccc23)cn1	%	37.3
C#Cc1c(F)ccc2cc(O)cc(-c3ncc4c(N5CC6CCC(C5)N6)nc(OCC56CCCN5CC(F)C6)nc4c3F)c12 (stereo not drawn) + Cc1cnc(CNC(=O)c2c(=O)c3ccc(N4CCCN(C)CC4)nc3n3c2sc2ccccc23)cn1	%	27.1

Shifting focus to the compound that follows.
Record request: viability, T/C value, item C=CCn1c(=O)c2cnc(Nc3ccc(N4CCN(C)CC4)cc3)nc2n1-c1cccc(C(C)(C)O)n1 + Cc1cnc(CNC(=O)c2c(=O)c3ccc(N4CCCN(C)CC4)nc3n3c2sc2ccccc23)cn1 17.7

====

- Test system: SUM149PT spheroids with HUVEC/MSC, viability
- Protocol details: Anticancer human tumor SUM149PT cell line growth inhibition [GQUAD];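 note: spheroids exposed to drugs for seven days before readout; percent viability relative to DMSO vehicle control taken as 100%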
- Setup conditions: second compound 0.316 µM; first compound 0.0999 µM; stronger effect = lower value
Please respond with reported viability, T/C for every item in the list.

Reference set (2 entries):
Compound	Test target	Metric	Result
CCc1c2c(nc3ccc(O)cc13)-c1cc3c(c(=O)n1C2)COC(=O)[C@]3(O)CC + CN(C)c1ccc(Nc2c3ccc(NC(=O)CCN4CCCC4)cc3nc3cc(NC(=O)CCN4CCCC4)ccc23)cc1	SUM149PT spheroids with HUVEC/MSC, viability	viability, T/C	37.7%
Cc1[nH]c2ccccc2c1CCNCc1ccc(/C=C/C(=O)NO)cc1 + CN(C)c1ccc(Nc2c3ccc(NC(=O)CCN4CCCC4)cc3nc3cc(NC(=O)CCN4CCCC4)ccc23)cc1	SUM149PT spheroids with HUVEC/MSC, viability	viability, T/C	89.8%

Each of the following entries comes with a recorded value; kindly state viability, T/C for each.
1. Cn1ncnc1[C@H]1c2n[nH]c(=O)c3cc(F)cc(c23)N[C@@H]1c1ccc(F)cc1 + Cc1[nH]c2ccc(F)cc2c1-c1nc2c3cccnc3c3ncccc3c2[nH]1
2. CCc1c2c(nc3ccc(O)cc13)-c1cc3c(c(=O)n1C2)COC(=O)[C@]3(O)CC + Cc1cnc(CNC(=O)c2c(=O)c3ccc(N4CCCN(C)CC4)nc3n3c2sc2ccccc23)cn1
3. CC[C@@]1(O)C(=O)OCc2c1cc1n(c2=O)Cc2cc3c(CN(C)C)c(O)ccc3nc2-1 + CN(C)c1ccc(Nc2c3ccc(NC(=O)CCN4CCCC4)cc3nc3cc(NC(=O)CCN4CCCC4)ccc23)cc1

1: 65.4%; 2: 21.8%; 3: 51.6%
